Where these numbers come from: patent US7205305B2

Biological target: activated p38 (Homo sapiens, UniProt Q16539)
Sequence (Q16539 whole entry): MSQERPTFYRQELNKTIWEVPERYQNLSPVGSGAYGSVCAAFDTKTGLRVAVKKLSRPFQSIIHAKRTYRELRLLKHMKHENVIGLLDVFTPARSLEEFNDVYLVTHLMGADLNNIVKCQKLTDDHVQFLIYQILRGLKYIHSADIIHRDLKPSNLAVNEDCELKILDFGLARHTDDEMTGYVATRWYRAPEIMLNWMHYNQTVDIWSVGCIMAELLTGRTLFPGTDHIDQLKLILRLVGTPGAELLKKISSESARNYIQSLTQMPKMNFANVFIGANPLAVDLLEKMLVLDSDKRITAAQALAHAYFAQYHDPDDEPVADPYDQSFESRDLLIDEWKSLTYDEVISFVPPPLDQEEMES
Assay: Inhibition of phosphorylation of EGF receptor peptide ("kinase")
Conditions: inhibition of phosphorylation of EGF receptor peptide by activated p38
property label: IC50

activated p38 (Homo sapiens, UniProt Q16539) / IC50 / NC(=O)C(c1cccc(-c2cc3ccccc3s2)n1)c1c(Cl)cccc1Cl (stereo not shown) [Compound 356] : value? ≥ 1000 nM

activated p38 (Homo sapiens, UniProt Q16539) / IC50 / NC(=O)C(c1cccc(-c2cccc3ccccc23)n1)c1c(Cl)cccc1Cl (stereo not shown) [Compound 362] : value? ≤ 100 nM

activated p38 (Homo sapiens, UniProt Q16539) / IC50 / COCOCc1cc(F)ccc1-c1cccc(C(C(N)=O)c2c(Cl)cccc2Cl)n1 (stereo not shown) [Compound 393] : value? 100 to 1000 nM

activated p38 (Homo sapiens, UniProt Q16539) / IC50 / O=c1ncn2nc(Sc3ccccc3)ccc2c1-c1ccc(F)cc1 [Compound 2] : value? ≥ 1000 nM

activated p38 (Homo sapiens, UniProt Q16539) / IC50 / O=c1ncn2nc(Sc3ccc(F)cc3[N+](=O)[O-])ccc2c1-c1c(Cl)cccc1Cl [Compound 34] : value? ≥ 1000 nM

activated p38 (Homo sapiens, UniProt Q16539) / IC50 / CN(C)/C=N\c1ccc(-c2c(=O)ncn3nc(Sc4ccc(F)cc4Cl)ccc23)c(Cl)c1 [Compound 48] : value? 100 to 1000 nM

activated p38 (Homo sapiens, UniProt Q16539) / IC50 / NC(=O)c1ccccc1SC1=NN2CNC(=O)C(c3c(Cl)cccc3Cl)=C2C=C1 [Compound 105] : value? 100 to 1000 nM

activated p38 (Homo sapiens, UniProt Q16539) / IC50 / NCCNCc1ccccc1-c1cccc(C(C(N)=O)c2c(Cl)cccc2Cl)n1 (stereo not shown) [Compound 359] : value? ≥ 1000 nM

activated p38 (Homo sapiens, UniProt Q16539) / IC50 / NC(=O)Nc1cc(F)ccc1SC1=NN2CNC(=O)C(c3c(Cl)cccc3Cl)=C2C=C1 [Compound 128] : value? ≥ 1000 nM

activated p38 (Homo sapiens, UniProt Q16539) / IC50 / NC(=O)C(c1cccc(-c2ccccc2/C=N\O)n1)c1c(Cl)cccc1Cl (stereo not shown) [Compound 307] : value? ≤ 100 nM

activated p38 (Homo sapiens, UniProt Q16539) / IC50 / NC(=O)C(c1cccc(-c2cc(Cl)cc(Cl)c2)n1)c1c(Cl)cccc1Cl (stereo not shown) [Compound 392] : value? 100 to 1000 nM

activated p38 (Homo sapiens, UniProt Q16539) / IC50 / O=C1NCN2N=C(Sc3ccc(F)cc3Cl)C=CC2=C1c1cc2c(cc1Cl)OCO2 [Compound 145] : value? ≤ 100 nM

activated p38 (Homo sapiens, UniProt Q16539) / IC50 / NC(=O)C(c1cccc(-c2ccc(C=O)cc2)n1)c1c(F)cccc1Cl (stereo not shown) [Compound 337] : value? ≥ 1000 nM

activated p38 (Homo sapiens, UniProt Q16539) / IC50 / NC(=O)C(c1cccc(-c2ccccc2)n1)c1cc2c(cc1Cl)OCO2 (stereo not shown) [Compound 397] : value? ≥ 1000 nM

activated p38 (Homo sapiens, UniProt Q16539) / IC50 / NC(=O)N(c1cccc(-c2ccc(F)cc2)n1)c1c(F)cccc1F [Compound 404] : value? ≤ 100 nM

activated p38 (Homo sapiens, UniProt Q16539) / IC50 / Nc1cc(F)ccc1Sc1ccc2c(-c3c(Cl)cccc3Cl)c(=O)ncn2n1 [Compound 35] : value? 100 to 1000 nM
